# maps each entry to its pIC50
- measurement target: human NOX4 (Homo sapiens)
- Construct: The full-length human NOX4 (NM_016931.3) transcript was cloned
- test description: Amplex Red activity assay (cellular H2O2 formation in hNOX4 T-REx-293 cells)
- run conditions: tet-induced 24 h, extracellular H2O2 by Amplex Red, 60 min 25° C., geometric mean if determined several times
Please keep in mind that pIC50 is minus log10 of the molar concentration; only the number is needed.

Below are worked cases with known answers.
>>> reported("CN1CCN(c2nc3cc(C(=O)Nc4ccc5c(c4)OCO5)ccc3s2)CC1 [Example 211]")
5.05
>>> reported("CN(C)CC1CCCN1c1nc2cc(NC(=O)c3ccc4c(c3)CCO4)ccc2s1 (stereo not drawn) [Example 117]")
5.42

(Q) Output measured pIC50 for this item: CN1CCN(c2nc3cc(NC(=O)c4ccc5c(c4)CCO5)ccc3o2)CC1 [Example 4]
(A) 6.01

(Q) Output measured pIC50 for this item: O=C(Nc1ccc2oc(N3CCCCC3)nc2c1)c1ccc2c(c1)OCO2 [Example 129]
(A) 6.07

(Q) Output measured pIC50 for this item: O=C(Nc1ccc2oc(N3CCC(F)(F)CC3)nc2c1)c1ccc2c(c1)CCCO2 [Example 149]
(A) 5.84

(Q) Output measured pIC50 for this item: CN1CCC2(CC1)CCN2c1nc2cc(NC(=O)c3ccc4c(c3)CCO4)ccc2o1 [Example 67]
(A) 5.51

(Q) Output measured pIC50 for this item: O=C(Nc1ccc2oc(N3CCOCC3)nc2c1)c1ccc2c(c1)OCO2 [Example 136]
(A) 5.89

(Q) Output measured pIC50 for this item: CN1CCOc2ccc(C(=O)Nc3ccc4oc(N5CC(F)(F)C5)nc4c3)cc21 [Example 178]
(A) 4.66

(Q) Output measured pIC50 for this item: CN(c1nc2cc(NC(=O)c3ccc4c(c3)CCO4)ccc2o1)C1(C)COC1 [Example 18]
(A) 6.25

====

- measurement target: human NOX4 (Homo sapiens, UniProt Q9NPH5)
- Construct: The full-length human NOX4 (NM_016931.3) transcript was cloned; expressed in transfected cells
- Sequence (Q9NPH5 whole entry): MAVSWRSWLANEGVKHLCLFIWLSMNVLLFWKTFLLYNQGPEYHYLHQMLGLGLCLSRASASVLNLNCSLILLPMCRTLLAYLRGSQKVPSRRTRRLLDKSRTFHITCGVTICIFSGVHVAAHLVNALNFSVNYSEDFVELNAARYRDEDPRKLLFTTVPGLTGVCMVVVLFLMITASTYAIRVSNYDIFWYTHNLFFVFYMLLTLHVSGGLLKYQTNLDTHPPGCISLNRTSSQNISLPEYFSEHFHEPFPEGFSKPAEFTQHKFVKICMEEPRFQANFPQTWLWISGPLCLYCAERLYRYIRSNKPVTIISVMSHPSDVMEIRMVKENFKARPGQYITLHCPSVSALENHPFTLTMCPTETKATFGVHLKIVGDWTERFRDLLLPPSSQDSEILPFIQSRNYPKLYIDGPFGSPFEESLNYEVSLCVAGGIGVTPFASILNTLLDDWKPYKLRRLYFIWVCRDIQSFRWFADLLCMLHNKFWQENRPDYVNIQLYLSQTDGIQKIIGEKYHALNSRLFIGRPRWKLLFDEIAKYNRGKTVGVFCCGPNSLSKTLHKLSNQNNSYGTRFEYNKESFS
- Sequence (P13498 whole entry partner): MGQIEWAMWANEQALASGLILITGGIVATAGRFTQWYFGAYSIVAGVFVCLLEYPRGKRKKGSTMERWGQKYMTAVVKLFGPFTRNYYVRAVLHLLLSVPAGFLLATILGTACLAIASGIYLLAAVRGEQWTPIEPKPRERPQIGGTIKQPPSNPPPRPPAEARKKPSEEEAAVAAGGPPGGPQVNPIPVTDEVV
- test description: Amplex Red activity assay (cellular H2O2 formation in hNOX4 T-REx-293 cells)
- Type: cell-based
- run conditions: tet-induced 24 h, extracellular H2O2 by Amplex Red, 60 min 25° C., geometric mean if determined several times
metric name: log10(IC50) (log10 of the value in nM)
Note: values are log10 of IC50 expressed in nM.

Below are worked cases with known answers.
>>> reported("O=C(Nc1ccc2oc(N3CCC3)nc2c1)c1ccc2c(c1)CCO2")
2.70
>>> reported("O=C(Nc1ccc2oc(N3CCC(F)(F)CC3)nc2c1)c1ccc2c(c1)OCO2")
2.94
>>> reported("O=C(Nc1ccc2oc(N3CCC[C@@H](O)C3)nc2c1)c1ccc2c(c1)CCO2")
2.75

Continue with the compound presented below.
(Q) Output measured log10(IC50) for this item: "O=C(Nc1ccc2oc(N3CCC34CCC4)nc2c1)c1ccc2c(c1)OCCO2"
(A) 2.82

====

- measurement target: human NOX4 (Homo sapiens, UniProt Q9NPH5)
- Construct: The full-length human NOX4 (NM_016931.3) transcript was cloned
- test description: Amplex Red activity assay (cellular H2O2 formation in hNOX4 T-REx-293 cells)
- run conditions: tet-induced 24 h, extracellular H2O2 by Amplex Red, 60 min 25° C., geometric mean if determined several times
# maps each entry to its pIC50
Please keep in mind that pIC50 is minus log10 of the molar concentration; only the number is needed.

>>> reported("O=C(Nc1ccc2sc(N3CCC[C@@H](O)C3)nc2c1)c1ccc2c(c1)CCO2")
5.66
>>> reported("O=C(Nc1ccc2oc(N3CCCC3)nc2c1)c1ccc2c(c1)CCO2")
6.05
>>> reported("O=C(Nc1ccc2c(c1)CCO2)c1ccc2sc(N3CCC(F)(F)CC3)nc2c1")
4.34

(Q) Output measured pIC50 for this item: "O=C(Nc1ccc2oc(N3CCN(C4COC4)CC3)nc2c1)c1ccc2c(c1)CCO2"
(A) 6.04

(Q) Output measured pIC50 for this item: "O=C(Nc1ccc2sc(N3CCCCC3)nc2c1)c1ccc2c(c1)CCO2"
(A) 5.61

(Q) Output measured pIC50 for this item: "CCN(CC)c1nc2cc(NC(=O)c3ccc4c(c3)OCCO4)ccc2o1"
(A) 5.87

(Q) Output measured pIC50 for this item: "CCNc1nc2cc(NC(=O)c3ccc4c(c3)CCO4)ccc2o1"
(A) 6.00

(Q) Output measured pIC50 for this item: "O=C(Nc1ccc2oc(N(C3CC3)C3COC3)nc2c1)c1ccc2c(c1)OCO2"
(A) 5.83

(Q) Output measured pIC50 for this item: "O=C(Nc1ccc2oc(N3CCCC3)nc2c1)c1ccc2c(c1)OCCO2"
(A) 5.89

(Q) Output measured pIC50 for this item: "O=C(Nc1ccc2oc(N3CCCC4(COC4)C3)nc2c1)c1ccc2c(c1)CCCO2"
(A) 5.95

(Q) Output measured pIC50 for this item: "O=C(Nc1ccc2oc(N3CCC34COC4)nc2c1)c1ccc2c(c1)OCCO2"
(A) 6.27

(Q) Output measured pIC50 for this item: "O=C(Nc1ccc2sc(N3CCOCC3)nc2c1)c1ccc2c(c1)CCO2"
(A) 5.63

(Q) Output measured pIC50 for this item: "CN(C)CC1CN(c2nc3cc(NC(=O)c4ccc5c(c4)CCO5)ccc3o2)C1"
(A) 5.38

(Q) Output measured pIC50 for this item: "O=C(Nc1ccc2oc(N3CCC34CCOCC4)nc2c1)c1ccc2c(c1)CCO2"
(A) 6.39

(Q) Output measured pIC50 for this item: "O=C(Nc1ccc2oc(N3CC[C@H](O)C3)nc2c1)c1ccc2c(c1)CCO2"
(A) 6.24

(Q) Output measured pIC50 for this item: COCC1CCCN1c1nc2cc(NC(=O)c3ccc4c(c3)CCO4)ccc2s1 (stereo not drawn)
(A) 5.49

(Q) Output measured pIC50 for this item: "O=C(Nc1ccc2oc(N3CC(N4CCCC4)C3)nc2c1)c1ccc2c(c1)CCO2"
(A) 5.67

(Q) Output measured pIC50 for this item: "CCN(CC)c1nc2cc(NC(=O)c3ccc4c(c3)CCO4)ccc2o1"
(A) 6.25

Values were extracted from patent US11136317B2.
